Value source: ChEMBL document CHEMBL4376858

# TEST_SUMMARY: Plasma concentration in Sprague-Dawley rat at 10 mg/kg, ip compound dissolved in DMSO/Tween 80/Saline measured after 1 hr by HPLC-MS analysis
# Format: ADME, organism-based
PROPERTY_NAME: concentration at 1 h (ng/mL)

| ITEM_SMILES | EXPERIMENTAL_VALUE |
| --- | --- |
| NC(=O)C[S@@+]([O-])C(c1ccccc1)c1ccccc1 | 3900 |

----------
# TARGET_DESC: Sodium-dependent dopamine transporter (Homo sapiens)
# TEST_SUMMARY: Inhibition of wild type human dopamine transporter expressed in HEK293 cells assessed as inhibition of [3H]dopamine reuptake preincubated for 5 mins followed by [3H]dopamine addition and measured after 1 min by liquid scintillation analysis
# Assay type: cell-based
# MEASUREMENT_CONDITIONS: read-out: IC50
# 1.0 = IC50 below 7 µM (exclusive); 0.0 = IC50 at/above 7 µM

| MOLECULE | TARGET_DESC | ASSIGNED_CATEGORY |
| --- | --- | --- |
| [O-][S@+](Cc1cncs1)[C@H](c1ccccc1)c1ccc(Br)cc1 | Sodium-dependent dopamine transporter (Homo sapiens) | 1.0 |
| [O-][S+](Cc1nccs1)C(c1ccc(Cl)cc1)c1ccc(Cl)cc1 (stereo not given) | Sodium-dependent dopamine transporter (Homo sapiens) | 0.0 |
| [O-][S+](Cc1csc(Cl)n1)C(c1ccccc1)c1ccccc1 (racemic) | Sodium-dependent dopamine transporter (Homo sapiens) | 1.0 |
| [O-][S+](Cc1cscn1)C(c1ccccc1)c1ccccc1 (racemic) | Sodium-dependent dopamine transporter (Homo sapiens) | 1.0 |
| Cc1ccc(C(c2ccc(C)cc2)[S+]([O-])Cc2cncs2)cc1 (racemic) | Sodium-dependent dopamine transporter (Homo sapiens) | 0.0 |

----------
Each record here notes measured pIC50.
# TARGET_DESC: Sodium-dependent dopamine transporter (Homo sapiens, UniProt Q01959)
# Sequence (Q01959 whole entry): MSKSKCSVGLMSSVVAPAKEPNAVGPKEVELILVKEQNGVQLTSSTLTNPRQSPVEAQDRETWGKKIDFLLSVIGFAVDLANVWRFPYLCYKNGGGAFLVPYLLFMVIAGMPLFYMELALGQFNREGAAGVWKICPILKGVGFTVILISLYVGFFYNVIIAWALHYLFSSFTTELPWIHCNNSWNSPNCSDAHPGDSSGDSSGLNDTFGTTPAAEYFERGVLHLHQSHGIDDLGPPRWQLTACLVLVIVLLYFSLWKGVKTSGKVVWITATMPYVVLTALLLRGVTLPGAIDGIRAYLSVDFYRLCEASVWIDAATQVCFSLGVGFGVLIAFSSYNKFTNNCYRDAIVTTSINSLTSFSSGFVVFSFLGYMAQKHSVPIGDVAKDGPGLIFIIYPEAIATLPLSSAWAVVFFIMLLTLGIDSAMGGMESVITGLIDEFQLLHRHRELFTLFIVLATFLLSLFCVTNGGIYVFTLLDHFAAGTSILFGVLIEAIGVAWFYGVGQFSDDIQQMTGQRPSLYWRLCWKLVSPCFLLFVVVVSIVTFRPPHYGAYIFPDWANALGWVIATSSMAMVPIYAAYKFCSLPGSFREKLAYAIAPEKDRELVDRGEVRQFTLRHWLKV
# TEST_SUMMARY: Inhibition of wild type human dopamine transporter expressed in HEK293 cells assessed as inhibition of [3H]dopamine reuptake preincubated for 5 mins followed by [3H]dopamine addition and measured after 1 min by liquid scintillation analysis
# Assay type: cell-based
# MEASUREMENT_CONDITIONS: read-out: IC50
pIC50: −log10 of the molar value.
PROPERTY_NAME: pIC50

| MOLECULE | EXPERIMENTAL_VALUE |
| --- | --- |
| Cc1ccc([C@H](c2ccccc2)[S@+]([O-])Cc2cncs2)cc1 | 3.87 |
| Cc1ncsc1C[S+]([O-])C(c1ccccc1)c1ccccc1 (stereo unspecified) | 4.36 |
| [O-][S+](Cc1cscn1)C(c1ccc(Cl)cc1)c1ccc(Cl)cc1 (stereo unspecified) | 5.30 |
| [O-][S@@+](Cc1cncs1)[C@H](c1ccccc1)c1ccc(C(F)(F)F)cc1 | 4.42 |
| [O-][S@@+](Cc1cncs1)[C@H](c1ccccc1)c1ccc(Cl)cc1 | 5.44 |
| [O-][S+](Cc1csc(C2CC2)n1)C(c1ccc(Cl)cc1)c1ccc(Cl)cc1 (stereo unspecified) | 4.85 |
| [O-][S@+](Cc1cscn1)[C@@H](c1ccccc1)c1ccc(Br)cc1 | 4.20 |
| Cc1ccc([C@H](c2ccccc2)[S@@+]([O-])Cc2cncs2)cc1 | 5.48 |
| Cc1ccc(C(c2ccc(C)cc2)[S+]([O-])Cc2cncs2)cc1 (stereo in doubt; 34a) | 5.17 |
| [O-][S@@+](Cc1cscn1)[C@@H](c1ccccc1)c1ccc(Br)cc1 | 6.19 |
| Cc1nc(C[S+]([O-])C(c2ccccc2)c2ccccc2)sc1C (stereo unspecified) | 4.48 |
| COc1ccc([C@H](c2ccccc2)[S@@+]([O-])Cc2cncs2)cc1 | 5.42 |
| [O-][S@+](Cc1cscn1)[C@H](c1ccccc1)c1ccc(Br)cc1 | 5.96 |
| CCCCc1nc(C[S+]([O-])C(c2ccccc2)c2ccccc2)cs1 (stereo unspecified) | 4.87 |
| [O-][S@@+](Cc1cncs1)[C@@H](c1ccccc1)c1ccc(Br)cc1 | 5.80 |
| [O-][S@+](Cc1cncs1)[C@H](c1ccccc1)c1ccc(Cl)cc1 | 5.13 |
| Cc1nc(CSC(c2ccccc2)c2ccccc2)cs1 | 4.04 |
| COc1ccc([C@@H](c2ccccc2)[S@+]([O-])Cc2cncs2)cc1 | 4.44 |
| [O-][S@@+](Cc1cncs1)[C@@H](c1ccccc1)c1ccc(C(F)(F)F)cc1 | 4.40 |
| [O-][S+](Cc1cncs1)C(c1ccc(F)cc1)c1ccc(F)cc1 (racemic) | 5.21 |
| Cc1ccc(C(c2ccc(C)cc2)[S+]([O-])Cc2cncs2)cc1 (stereo in doubt; 34b) | 3.45 |
